target: α7 nAChR (Homo sapiens); construct: expressed in transfected cells; host or cells: Xenopus laevis oocytes, injected with in vitro transcribed RNA; experiment: α7 responses to drugs co-applied with the PAM PNU-120596 (silent agonism); type: cell-based; details: drug 30 μM + 10 μM PNU-120596; normalized to 30 μM ACh + 10 μM PNU-120596
Sequence (P36544 23-502): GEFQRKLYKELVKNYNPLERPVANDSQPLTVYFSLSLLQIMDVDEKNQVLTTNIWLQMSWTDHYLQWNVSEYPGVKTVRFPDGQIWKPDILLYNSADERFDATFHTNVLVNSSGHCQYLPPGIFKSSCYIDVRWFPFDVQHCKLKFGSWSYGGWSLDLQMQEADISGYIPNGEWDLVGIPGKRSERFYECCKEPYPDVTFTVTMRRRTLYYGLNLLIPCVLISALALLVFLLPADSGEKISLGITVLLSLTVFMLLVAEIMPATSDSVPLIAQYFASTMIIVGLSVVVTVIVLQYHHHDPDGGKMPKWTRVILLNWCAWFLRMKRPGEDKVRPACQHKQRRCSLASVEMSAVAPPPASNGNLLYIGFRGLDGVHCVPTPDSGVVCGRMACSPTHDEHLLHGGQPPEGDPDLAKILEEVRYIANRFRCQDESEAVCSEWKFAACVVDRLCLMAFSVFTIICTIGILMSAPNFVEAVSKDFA
Record form. Attribute: Response co-applied with PNU-120596, normalized to ACh co-applied with PNU-120596. Fill in for each entry.
Enter the number alone.

# Response co-applied with PNU-120596, normalized to ACh co-applied with PNU-120596 (compound: CC[N+]1(CC)CCN(c2ccc(-c3ncco3)cc2)CC1.[I-] [Compound 3g] ) is 0.05

Field Response co-applied with PNU-120596, normalized to ACh co-applied with PNU-120596 (entry Cc1cccc(NC(=O)c2ccc(N3CC[N+](C)(C)CC3)cc2)n1.[I-] [Compound 3e] ) reads 0.16

Data point: CC[N+]1(CC)CCN(c2ccc(C(=O)N3CCCC3)cc2)CC1.[I-] [Compound 3a] ; Response co-applied with PNU-120596, normalized to ACh co-applied with PNU-120596 = 0.01

According to the records, this compound CC[N+]1(CC)CCN(c2ccc(-n3cccn3)cc2)CC1.[I-] [Compound 3h] displays Response co-applied with PNU-120596, normalized to ACh co-applied with PNU-120596 of 0.17

Value of Response co-applied with PNU-120596, normalized to ACh co-applied with PNU-120596 reported for the compound CCCNC(=O)c1ccc(N2CC[N+](CC)(CC)CC2)cc1.[I-] [Compound 3b] is 0.19

Looking up CC[N+]1(CC)CCN(c2ccc(-n3cccc3)cc2)CC1.[I-] [Compound 3i] , I found its Response co-applied with PNU-120596, normalized to ACh co-applied with PNU-120596 recorded as 0.08

So for CC[N+]1(C)CCN(c2ccc(C(=O)Nc3cccc(C)n3)cc2)CC1.[I-] [Compound 3f] , the logged Response co-applied with PNU-120596, normalized to ACh co-applied with PNU-120596 turned out to be 0.13

Per the records, this compound ( CC[N+]1(CC)CCN(c2ccc(C(=O)Nc3ccccn3)cc2)CC1.[I-] [Compound 3c] ) has Response co-applied with PNU-120596, normalized to ACh co-applied with PNU-120596 equal to 0.12

Lookup result for CC[N+]1(CC)CCN(c2ccc(C(N)=O)cc2)CC1 [Compound 1, reference compound] ; measured Response co-applied with PNU-120596, normalized to ACh co-applied with PNU-120596: 0.18

Record summary for CC[N+]1(CC)CCN(c2ccc(C(=O)Nc3cccc(C)c3)cc2)CC1.[I-] [Compound 3d] : reported Response co-applied with PNU-120596, normalized to ACh co-applied with PNU-120596 = 0.17
